Test: Snapshot pharmacokinetics in plasma after oral gavage
Type: in vivo, mice
Details: mouse, plasma, po; healthy BALB/c mice, 20 mg/kg gavage; Table 13; read-out: Cmax (μg/mL)
Experimental: Pharmacology of 5-cyclopentadecylpentyl (2-(trimethylammonio)ethyl) phosphate (19) in mice. Blood samples were collected from the tail vein at 0, 0.5, 0.75, 1, 3, 24 and 72 hours into heparinized tubes. Moreover, biodistribution of the molecule, 72h after administration, was determined in several organs of the treated mice, namely brain, liver, spleen, kidney, heart and bone marrow. […] J Chromatogr B, 865: 55-62) by liquid chromatography mass spectrometry (LC-MS/MS).
REPORTED ENDPOINT: Cmax

Look at this compound and give its reported Cmax. C[N+](C)(C)CCOP(=O)([O-])OCCCCC1CCCCCCCCCCCCCC1 [Compound 18] 9.1 µg/mL

Look at this compound and give its reported Cmax. C[N+](C)(C)CCOP(=O)([O-])OCCCCCC1CCCCCCCCCCC1 [Compound 17] 2.05 µg/mL

Look at this compound and give its reported Cmax. C[N+](C)(C)CCOP(=O)([O-])OCCCCCC1CCCCCCCCCCCCCC1 [Compound 19] 15.4 µg/mL

* * *

target: CYP3A4 (Homo sapiens, UniProt P08684); assay: Early toxicity: CYP3A4 inhibition; assay type: in vitro ADME; settings: human; 10 μM; mean ± SD; Table 4a; read-out: % inhibition CYP3A4
Sequence (P08684 whole entry): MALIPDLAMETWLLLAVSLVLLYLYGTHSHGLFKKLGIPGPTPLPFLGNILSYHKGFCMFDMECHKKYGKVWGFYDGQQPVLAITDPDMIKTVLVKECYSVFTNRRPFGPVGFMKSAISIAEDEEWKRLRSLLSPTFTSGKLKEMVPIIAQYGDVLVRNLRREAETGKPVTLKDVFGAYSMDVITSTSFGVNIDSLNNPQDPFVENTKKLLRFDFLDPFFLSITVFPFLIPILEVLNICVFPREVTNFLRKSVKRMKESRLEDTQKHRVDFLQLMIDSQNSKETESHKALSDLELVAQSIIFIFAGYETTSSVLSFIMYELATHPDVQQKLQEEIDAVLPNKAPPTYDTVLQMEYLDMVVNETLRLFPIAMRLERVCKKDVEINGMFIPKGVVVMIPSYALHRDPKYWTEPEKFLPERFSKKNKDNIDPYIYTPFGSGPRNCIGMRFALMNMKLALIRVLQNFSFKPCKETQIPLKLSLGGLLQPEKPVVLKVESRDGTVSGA
Give Criterion met when the value for inhibition at 10 µM is at least 20%. Give Criterion not met when it is less.

Record `C[N+](C)(C)CCOP(=O)([O-])OCCCCC=C1CCCCCCCCCCC1` ; criterion: inhibition at 10 µM no lower than 20%. Met? Criterion met

Record `C[N+](C)(C)CCOP(=O)([O-])OCCCCC1CCCCCCCCCCCCCC1` ; criterion: inhibition at 10 µM no lower than 20%. Met? Criterion met

Record `C[N+](C)(C)CCOP(=O)([O-])OCCC1CCCCCCCCCCC1` ; criterion: inhibition at 10 µM no lower than 20%. Met? Criterion met

Record `C[N+](C)(C)CCCOP(=O)([O-])OCCCCC=C1CCCCCCCCCCCCCC1` ; criterion: inhibition at 10 µM no lower than 20%. Met? Criterion met

Record CCCCCCCCCCCCCCCCOP(=O)([O-])OCC[N+](C)(C)C [Miltefosine, hexadecylphosphocholine, reference compound] ; criterion: inhibition at 10 µM no lower than 20%. Met? Criterion not met

Record `C[N+](C)(C)CCOP(=O)([O-])OCCC1CCCCCCCCCCCCCC1` ; criterion: inhibition at 10 µM no lower than 20%. Met? Criterion met

Record `C[N+](C)(C)CCOP(=O)([O-])OCCCCCC1CCCCCCCCCCC1` ; criterion: inhibition at 10 µM no lower than 20%. Met? Criterion met

Record `C[N+](C)(C)CCOP(=O)([O-])OCCCCCC1CCCCCCCCCCCCCC1` ; criterion: inhibition at 10 µM no lower than 20%. Met? Criterion not met

* * *

assay: Apparent solubility by nephelometry; assay type: physicochemical; details: water, kinetic from dmso stock
REPORTED ENDPOINT: solubility (µM)
Provide only the numeric value, understood in µM.

Look at this compound and give its reported solubility. CCCCCCCCCCCCCCCCOP(=O)([O-])OCC[N+](C)(C)C [Miltefosine, hexadecylphosphocholine, reference compound] 25

* * *

assay: Snapshot pharmacokinetics in plasma after oral gavage; type: in vivo, mice; conditions: BALB/c (Compound 19); NMRI (miltefosine), mouse, plasma; healthy mice, 20 mg/kg oral gavage; Table 10; read-out: Cmax
REPORTED ENDPOINT: Cmax (µM)
Provide only the numeric value, understood in µM.

Look at this compound and give its reported Cmax. C[N+](C)(C)CCOP(=O)([O-])OCCCCCC1CCCCCCCCCCCCCC1 [Compound 19] 33.4

* * *

tested on: PMA-differentiated THP-1 cells; test: Toxicity MTT assay in PMA-differentiated THP-1 cells; type: cell-based, human; details: Table 4b; read-out: Cytotoxicity THP-1 (IC50)
REPORTED ENDPOINT: IC50

Look at this compound and give its reported IC50. `C[N+](C)(C)CCCOP(=O)([O-])OCCCCCC1CCCCCCCCCCCCCC1` > 100 µM

* * *

experiment: Biodistribution in tissues 72 h after oral gavage; type: in vivo, mice; conditions: BALB/c (Compound 19); NMRI (miltefosine), mouse, spleen; 72 h after 20 mg/kg oral gavage; read-out: Tissue/Plasma ratio Spleen
REPORTED ENDPOINT: Kp at 72 h
// keep it numeric: no unit symbol after the value

Look at this compound and give its reported Kp at 72 h. C[N+](C)(C)CCOP(=O)([O-])OCCCCCC1CCCCCCCCCCCCCC1 [Compound 19] 1.06

* * *

assay: Apparent solubility by nephelometry; format: physicochemical; details: pH 1.6, simulated gastric fluid, kinetic from dmso stock
REPORTED ENDPOINT: solubility (µM)
Provide only the numeric value, understood in µM.

Look at this compound and give its reported solubility. CCCCCCCCCCCCCCCCOP(=O)([O-])OCC[N+](C)(C)C [Miltefosine, hexadecylphosphocholine, reference compound] 12.5

* * *

assay: Apparent solubility by nephelometry; type: physicochemical; details: pH 7.4, aqueous buffer, kinetic from dmso stock
REPORTED ENDPOINT: solubility (µM)
Provide only the numeric value, understood in µM.

Look at this compound and give its reported solubility. CCCCCCCCCCCCCCCCOP(=O)([O-])OCC[N+](C)(C)C [Miltefosine, hexadecylphosphocholine, reference compound] 25

* * *

molecular target: CYP2C9 (Homo sapiens); experiment: Early toxicity: CYP2C9 inhibition; assay type: in vitro ADME; details: human, mean ± SD, Table 4a
Sequence (P11712 whole entry): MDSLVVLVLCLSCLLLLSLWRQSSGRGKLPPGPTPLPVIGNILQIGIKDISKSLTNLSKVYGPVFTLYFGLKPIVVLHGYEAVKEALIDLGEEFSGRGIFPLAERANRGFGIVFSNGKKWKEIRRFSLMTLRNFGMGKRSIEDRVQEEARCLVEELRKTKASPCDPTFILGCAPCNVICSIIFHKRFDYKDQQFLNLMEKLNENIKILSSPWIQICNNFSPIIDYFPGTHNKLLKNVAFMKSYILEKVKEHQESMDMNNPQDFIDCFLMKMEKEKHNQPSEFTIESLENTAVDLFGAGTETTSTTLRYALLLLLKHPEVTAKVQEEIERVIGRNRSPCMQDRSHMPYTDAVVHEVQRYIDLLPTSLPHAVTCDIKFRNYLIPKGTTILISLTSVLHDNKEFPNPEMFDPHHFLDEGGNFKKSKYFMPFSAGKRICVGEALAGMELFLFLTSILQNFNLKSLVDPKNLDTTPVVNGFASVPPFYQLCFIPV
For each of the compounds below, state its inhibition at 10 µM.
Provide only the numeric value, understood in %.

Look at this compound and give its reported inhibition at 10 µM. C[N+](C)(C)CCOP(=O)([O-])OCCCCCC1CCCCCCCCCCCCCC1 [Compound 19] -17.5

Look at this compound and give its reported inhibition at 10 µM. C[N+](C)(C)CCOP(=O)([O-])OCCC1CCCCCCCCCCC1 [Compound 27] 13.7

Look at this compound and give its reported inhibition at 10 µM. C[N+](C)(C)CCOP(=O)([O-])OCCCCCC1CCCCCCCCCCC1 [Compound 17] 10.3

Look at this compound and give its reported inhibition at 10 µM. C[N+](C)(C)CCOP(=O)([O-])OCCC1CCCCCCCCCCCCCC1 [Compound 28] 9.6

Look at this compound and give its reported inhibition at 10 µM. C[N+](C)(C)CCOP(=O)([O-])OCCCCC=C1CCCCCCCCCCC1 [Compound 12] 1.76

Look at this compound and give its reported inhibition at 10 µM. C[N+](C)(C)CCCOP(=O)([O-])OCCCCC=C1CCCCCCCCCCCCCC1 [Compound 15] 15.6

Look at this compound and give its reported inhibition at 10 µM. C[N+](C)(C)CCOP(=O)([O-])OCCCCC1CCCCCCCCCCCCCC1 [Compound 18] 5.66

* * *

test: Apparent solubility by nephelometry; format: physicochemical; settings: simulated gastric fluid (SGF), simulated gastric fluid, kinetic from dmso stock; SGF, pH 1.6; read-out: Solubility in SGF (pH = 1.6)
REPORTED ENDPOINT: solubility

Look at this compound and give its reported solubility. C[N+](C)(C)CCOP(=O)([O-])OCCCCCC1CCCCCCCCCCCCCC1 [Compound 19] 12.5 µM

* * *

molecular target: CYP2D6 (Homo sapiens, UniProt P10635); test: Early toxicity: CYP2D6 inhibition; assay type: in vitro ADME; settings: human, mean ± SD, Table 4a
Sequence (P10635 whole entry): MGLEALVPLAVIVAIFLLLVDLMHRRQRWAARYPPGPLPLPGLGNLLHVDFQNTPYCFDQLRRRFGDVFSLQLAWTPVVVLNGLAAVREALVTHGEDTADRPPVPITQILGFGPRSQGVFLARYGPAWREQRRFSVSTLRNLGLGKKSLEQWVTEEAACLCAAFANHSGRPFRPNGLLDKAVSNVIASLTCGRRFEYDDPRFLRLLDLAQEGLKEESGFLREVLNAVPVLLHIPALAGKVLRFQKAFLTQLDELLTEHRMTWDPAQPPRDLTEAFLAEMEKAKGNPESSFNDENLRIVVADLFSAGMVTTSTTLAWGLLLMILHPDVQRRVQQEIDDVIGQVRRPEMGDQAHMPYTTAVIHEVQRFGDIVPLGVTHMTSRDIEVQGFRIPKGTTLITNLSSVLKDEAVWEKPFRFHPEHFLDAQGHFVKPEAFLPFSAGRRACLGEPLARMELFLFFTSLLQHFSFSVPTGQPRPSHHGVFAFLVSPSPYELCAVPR
Give Criterion met when the value for inhibition at 10 µM is at least 30%. Give Criterion not met when it is less.

Record `C[N+](C)(C)CCOP(=O)([O-])OCCCCC1CCCCCCCCCCCCCC1` ; criterion: inhibition at 10 µM no lower than 30%. Met? Criterion met

Record `C[N+](C)(C)CCOP(=O)([O-])OCCCCC=C1CCCCCCCCCCC1` ; criterion: inhibition at 10 µM no lower than 30%. Met? Criterion not met

Record `C[N+](C)(C)CCOP(=O)([O-])OCCCCCC1CCCCCCCCCCCCCC1` ; criterion: inhibition at 10 µM no lower than 30%. Met? Criterion not met

Record `C[N+](C)(C)CCCOP(=O)([O-])OCCCCC=C1CCCCCCCCCCCCCC1` ; criterion: inhibition at 10 µM no lower than 30%. Met? Criterion met

Record `C[N+](C)(C)CCOP(=O)([O-])OCCC1CCCCCCCCCCC1` ; criterion: inhibition at 10 µM no lower than 30%. Met? Criterion not met

Record `C[N+](C)(C)CCOP(=O)([O-])OCCCCCC1CCCCCCCCCCC1` ; criterion: inhibition at 10 µM no lower than 30%. Met? Criterion met

Record `C[N+](C)(C)CCOP(=O)([O-])OCCC1CCCCCCCCCCCCCC1` ; criterion: inhibition at 10 µM no lower than 30%. Met? Criterion met
